Property: T/C; scope: individual compounds
# Test system: L1210 leukemia ip in BDF1 mice, survival T/C
# Measurement protocol: NCI In Vivo Anticancer Drug Screen. Data for tumor model L1210 Leukemia (intraperitoneal) in B6D2F1 (BDF1) mice
# Particulars: endpoint: mean survival time; dose: 200.0 mg/kg/injection; schedule: Q04DX003 (ip); vehicle: gum acacia; higher = longer survival
# Experimental: The antitumor activity of compounds was measured in mice bearing transplantable tumors. Survival or tumor size were measured and the results are expressed as the measurement made in the treated group (T) divided by the measurement made in the vehicle treated control group (C). The tumor model used in this assay is L1210 Leukemia (intraperitoneal) in B6D2F1 (BDF1) mice
Toxic doses and inconclusive results are not listed.
Quantity name: T/C

INSERT INTO assay_data (compound, value_reported) VALUES
  ('S=C1NC(c2ccc(Cl)cc2)N2C(=S)NC(c3ccc(Cl)cc3)N12 (stereo not given)', '101 % of control'),
  ('O=[N+]([O-])c1ccc(OCc2cccc(Cl)c2S(=O)(=O)F)c(Cl)c1', '104 % of control'),
  ('Cc1ccc(C2NC(=S)N3C(c4ccc(C)cc4)NC(=S)N23)cc1 (stereo not given)', '90 % of control'),
  ('CCOC(=O)C(C)NC(=O)C(C)NC(=O)OCc1ccccc1 (stereo not given)', '101 % of control'),
  ('Oc1ccccc1N=Cc1ccc(C=Nc2ccccc2O)cc1', '98 % of control');

====

# Tested on: L1210 leukemia ip in BDF1 mice, survival T/C
# Measurement protocol: NCI In Vivo Anticancer Drug Screen. Data for tumor model L1210 Leukemia (intraperitoneal) in B6D2F1 (BDF1) mice
# Particulars: endpoint: mean survival time; dose: 25.0 mg/kg/injection; schedule: Q04DX003 (ip); vehicle: saline with Tween-80; higher = longer survival
Inconclusive results and toxic doses are left out.
Property: T/C; scope: individual molecules
Quantity name: T/C

INSERT INTO assay_data (molecule, target_desc, value_reported) VALUES
  ('N/C(=N\Cl)C(Cl)(Cl)Cl', 'L1210 leukemia ip in BDF1 mice, survival T/C', '103 % of control'),
  ('C[C@H]1CP(c2ccccc2)(c2ccccc2)(c2ccccc2)O[C@@]1(C(=O)c1ccccc1)c1ccccc1', 'L1210 leukemia ip in BDF1 mice, survival T/C', '100 % of control'),
  ('CN(C)/C=N\c1c(C#N)c(CC#N)nn1-c1ccccc1', 'L1210 leukemia ip in BDF1 mice, survival T/C', '103 % of control'),
  ('Cc1cc(C)c(C#[N+][O-])c(C)c1', 'L1210 leukemia ip in BDF1 mice, survival T/C', '93 % of control'),
  ('CSc1ncnc2[nH]ncc12', 'L1210 leukemia ip in BDF1 mice, survival T/C', '105 % of control'),
  ('CNC(C)(C)C(SS)c1ccc(Cl)cc1 (centres undefined)', 'L1210 leukemia ip in BDF1 mice, survival T/C', '102 % of control'),
  ('CN1CCC(S)(S)CC1', 'L1210 leukemia ip in BDF1 mice, survival T/C', '102 % of control'),
  ('O=c1ccccn1CCc1ccccc1', 'L1210 leukemia ip in BDF1 mice, survival T/C', '101 % of control'),
  ('O=C(O)c1ccccc1[N+](=O)[O-].[Ag]', 'L1210 leukemia ip in BDF1 mice, survival T/C', '107 % of control');
